Reference source: PubChem BioAssay

Each record here notes measured composite z-score.
# measuredOn: Torsin-1A (Homo sapiens) (UniProt O14656)
# Sequence (O14656 whole entry, looked up): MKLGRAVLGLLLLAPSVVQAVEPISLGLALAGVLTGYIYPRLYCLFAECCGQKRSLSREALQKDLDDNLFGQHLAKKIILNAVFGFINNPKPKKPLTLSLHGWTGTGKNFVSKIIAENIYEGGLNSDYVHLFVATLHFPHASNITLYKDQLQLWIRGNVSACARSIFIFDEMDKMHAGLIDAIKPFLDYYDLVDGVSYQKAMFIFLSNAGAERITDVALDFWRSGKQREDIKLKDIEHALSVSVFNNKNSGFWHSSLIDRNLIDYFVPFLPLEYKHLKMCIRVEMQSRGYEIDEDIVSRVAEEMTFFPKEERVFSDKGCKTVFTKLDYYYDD
# assayProcedure: TOR1A wild-type binding on microarray – cell lysate, small-molecule microarray, lysate, 635/667 nm, primary screen (AID 1149)
# condition: COS7 hTOR1A-WT lysate, 635 nm fluorescence, higher = more signal
// keep it numeric: no unit symbol after the value

Example entries and their recorded answers appear below.
compound	obsValue
CCCCC(O)C1C=CC2C(=O)N(c3ccccc3)C(=O)C2N1Nc1ccc(C#N)cc1 (stereo not given)	0.242
C=C(COC)C(=O)CC[C@H](OC(=O)c1cccnc1)c1ccc(OCCO)cc1	0.613

Next compound, composite z-score to be filled in.
Task item: Which composite z-score is listed for `[N-]=[N+]=NCc1ccccc1[C@@H]1OC(c2ccc(OCCCO)cc2)=N[C@]1(Cc1ccccc1N=[N+]=[N-])C(=O)O` ?
Reply: 0.177

###

# measuredOn: Epidermal growth factor receptor (Homo sapiens) (UniProt P00533)
# Sequence (P00533 whole entry, looked up): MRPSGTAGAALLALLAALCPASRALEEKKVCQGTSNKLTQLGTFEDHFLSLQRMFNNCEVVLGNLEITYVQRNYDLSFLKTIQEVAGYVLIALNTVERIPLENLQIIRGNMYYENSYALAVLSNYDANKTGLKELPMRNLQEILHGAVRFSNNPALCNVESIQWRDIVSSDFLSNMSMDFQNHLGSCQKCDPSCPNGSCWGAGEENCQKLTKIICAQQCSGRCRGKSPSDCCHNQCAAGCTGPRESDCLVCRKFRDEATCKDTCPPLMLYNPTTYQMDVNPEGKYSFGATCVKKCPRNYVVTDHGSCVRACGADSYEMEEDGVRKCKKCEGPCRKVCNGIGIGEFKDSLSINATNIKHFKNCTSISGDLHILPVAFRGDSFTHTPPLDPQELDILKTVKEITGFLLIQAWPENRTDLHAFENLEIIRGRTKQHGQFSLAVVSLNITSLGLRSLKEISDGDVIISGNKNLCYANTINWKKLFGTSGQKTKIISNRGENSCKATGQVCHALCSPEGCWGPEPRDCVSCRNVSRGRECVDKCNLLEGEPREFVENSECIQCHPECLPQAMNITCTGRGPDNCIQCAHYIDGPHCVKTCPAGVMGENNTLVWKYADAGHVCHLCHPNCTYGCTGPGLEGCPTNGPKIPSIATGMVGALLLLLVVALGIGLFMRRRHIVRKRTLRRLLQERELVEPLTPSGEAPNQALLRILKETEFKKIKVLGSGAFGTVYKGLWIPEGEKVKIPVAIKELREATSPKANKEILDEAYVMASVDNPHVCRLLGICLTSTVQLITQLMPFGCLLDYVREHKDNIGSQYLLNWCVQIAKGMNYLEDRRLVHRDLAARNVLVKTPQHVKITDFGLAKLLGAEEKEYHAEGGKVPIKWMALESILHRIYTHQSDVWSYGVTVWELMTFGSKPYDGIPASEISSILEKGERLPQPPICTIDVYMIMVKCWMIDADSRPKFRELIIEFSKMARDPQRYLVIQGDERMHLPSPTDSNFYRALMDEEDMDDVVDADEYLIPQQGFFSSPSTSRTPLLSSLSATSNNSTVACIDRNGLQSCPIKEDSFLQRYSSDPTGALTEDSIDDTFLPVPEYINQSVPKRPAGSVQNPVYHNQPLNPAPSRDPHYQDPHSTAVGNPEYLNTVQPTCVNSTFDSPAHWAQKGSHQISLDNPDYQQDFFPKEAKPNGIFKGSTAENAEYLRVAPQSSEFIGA
# assayProcedure: compounds binding epidermal growth factor receptor – biochemical, small-molecule microarray, 635 nm fluorescence, primary screen (AID 1104);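 also: score merges 667 nm emission intensity with spot signal to noise over triplicate slides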
# condition: EGFR binding, higher = more signal
measuredEndpoint: composite z-score
// keep it numeric: no unit symbol after the value

compound	obsValue
C=CCOC(=O)[C@H]1[C@@H]2C(=O)O[C@@H](c3ccccc3)[C@@H](c3ccccc3)N2[C@@H](c2ccc(OCCOC(=O)[C@@H]3C[C@@H]4C(=O)N[C@@H](CCCC[N+](C)(C)C)C(=O)N4[C@@H]3c3ccc(O)cc3)cc2)[C@]12C(=O)Nc1ccc(I)cc12	0.934
C=CCOC(=O)[C@@H]1[C@H]2C(=O)O[C@H](c3ccccc3)[C@H](c3ccccc3)N2[C@H](c2ccc(OCCOC(=O)[C@H]3C[C@H]4C(=O)NCC(=O)N4[C@H]3c3cccc(OCCO)c3)cc2)[C@@]12C(=O)Nc1ccc(I)cc12	0.725
CCOc1cc(C(O)C2C=CC3C(=O)N(c4ccccc4)C(=O)C3N2Nc2ccccc2F)ccc1O (stereo unspecified)	0.232
COC(=O)[C@@]1(Cc2ccc(OC)cc2)[C@H]2c3cc(C(=O)N(C)C)[nH]c3C[C@H]2CN1C(=O)c1ccccc1	-0.144
COC(=O)C[C@H]1O[C@@]2(C[C@@H]1[Si](C)(C)C)C(=O)N(C)c1ccccc12	0.559

Next compound, composite z-score to be filled in.
Task item: Which composite z-score is listed for `CCCN1C(=O)[C@@]2(c3ccc([N+](=O)[O-])cc3)CC(=O)N(CC34CC5CC(CC(C5)C3)C4)[C@@H]2c2ccc(CO)cc21` ?
Reply: -0.381

###

# measuredOn: Torsin-1A (Homo sapiens) (UniProt O14656)
# assayProcedure: TOR1A wild-type binding on microarray – cell lysate, small-molecule microarray, lysate, 635/667 nm, primary screen (AID 1149)
# condition: COS7 hTOR1A-WT lysate, 635 nm fluorescence, higher = more signal
Each record here notes measured composite z-score.
// keep it numeric: no unit symbol after the value

Example entries and their recorded answers appear below.
compound	composite z-score
CCOC(=O)C1=CC[C@@H](c2ccccc2)N(S(=O)(=O)c2ccc(C)cc2)[C@H]1c1ccccc1I	-0.315
COC(=O)[C@@]1(Cc2ccccc2)N=C(c2ccc(OCCCO)cc2)O[C@H]1c1ccccc1CN=[N+]=[N-]	0.009
O=C1[C@@H]2[C@@H](CC(COc3ccccc3)=C([C@H](O)CCc3ccccc3)[C@@H]2CO)C(=O)N1Cc1ccccc1	-0.19
CC(=O)c1ccc(C(O)C2C=CC3C(=O)N(c4ccccc4)C(=O)C3N2Nc2ccc(C(C)C)cc2)cc1 (configuration not stated)	-0.127
COc1ccc([Si](C)(C)[C@H]2[C@H](CC(=O)N3CCC[C@H]3CO)O[C@@]3(C(=O)N(Cc4ccc(N5CCCCC5=O)cc4)c4ccccc43)[C@@H]2C)cc1	0.13
CCCC=C(CCC)[C@@H](NC(=O)c1ccc(C(F)(F)F)cc1)c1ccc(C(F)(F)F)cc1	0.342

Next compound, composite z-score to be filled in.
Task item: Which composite z-score is listed for `COc1ccc([Si](C)(C)[C@@H]2[C@@H](CC(=O)N3Cc4ccccc4C[C@H]3CO)O[C@]3(C(=O)N(Cc4cccc(N5CCOC5=O)c4)c4ccccc43)[C@H]2C)cc1` ?
Reply: 0.846

###

Each record here notes measured z-score.
# assayProcedure: compound effects on hepatocellular carcinoma cell viability – HepG2, calcein-AM fluorescence, 48 h, basal, profiling panel (AID 1164); also: test concentration not given here
# condition: higher = more signal
// keep it numeric: no unit symbol after the value

Example entries and their recorded answers appear below.
compound	z-score
O=C1C2C=CC(C(O)c3cccs3)N(Nc3ccc([N+](=O)[O-])cc3)C2C(=O)N1c1ccccc1 (configuration not stated)	1.43
C=C(CCCC)/C(=C/C[C@H](OC(=O)c1ccncc1)c1ccc(OCCO)cc1)c1cnc2ccccc2c1	0.014
COCCCNC(=O)[C@@]1(CCS(=O)(=O)c2ccccc2)COC(c2ccc(OCCCO)cc2)=N1	-0.771

Task item: Which z-score is listed for `CC(C)(C)OC(=O)CC[C@@]1(C(=O)NCCN2CCOCC2)N=C(c2ccc(OCCCO)cc2)O[C@@H]1c1ccccc1CN=[N+]=[N-]` ?
Reply: 0.463

###

# measuredOn: Carbonic anhydrase 2 (Homo sapiens) (UniProt P00918)
# assayProcedure: compounds binding carbonic anhydrase 2 – biochemical, small-molecule microarray, Alexa647-labelled CAII, profiling panel (AID 1122)
# condition: CAII-A647 binding fluorescence, higher = more signal
measuredEndpoint: composite z-score

Task item: Which composite z-score is listed for `CCCC=C(CCC)[C@@H](NC(=O)c1ccc(C(F)(F)F)cc1)c1ccc(C(F)(F)F)cc1` ?
Reply: 0.205

Task item: Which composite z-score is listed for `COC(=O)C(CC#Cc1ccc2c(c1)[C@]1(C(=O)N2)[C@H](c2ccccc2OCCO)N2[C@H](c3ccccc3)[C@H](c3ccccc3)OC(=O)[C@H]2[C@@H]1C(=O)N1CCc2cc(OC)c(OC)cc2C1)C(=O)OC` ?
Reply: 0.661

Task item: Which composite z-score is listed for `NCCCCCCNC(=O)[C@@H]1C[C@@H]2C(=O)N3CCC[C@H]3C(=O)N2[C@@H]1c1cccc(OCCO)c1` ?
Reply: 0.709

Task item: Which composite z-score is listed for `COC(=O)[C@@]1(Cc2ccc(OC)cc2)[C@H]2c3cc(C(=O)N4CCCC4)n(Cc4ccc(C(F)(F)F)nc4)c3C[C@H]2CN1C(=O)c1ccccc1` ?
Reply: 0.737

###

# assayProcedure: probe aLefty1 binding on compound microarray – biochemical, small-molecule microarray, 635/667 nm fluorescence, primary screen (AID 1153);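 also: score merges spot fluorescence with signal-to-noise ratio from the scanned slide images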
# condition: higher = more signal
measuredEndpoint: composite z-score
// keep it numeric: no unit symbol after the value

Example entries and their recorded answers appear below.
compound	obsValue
CCOc1cc(C(O)C2C=CC3C(=O)N(c4ccccc4)C(=O)C3N2Nc2ccccc2F)ccc1O (configuration not stated)	0.875
O=C(NCC(O)CO)[C@@]1(CCS(=O)(=O)c2ccccc2)N=C(c2ccc(OCCCO)cc2)O[C@H]1c1ccccc1 (some centres not stated)	0.419
COC(=O)[C@@]1(Cc2ccccc2)N=C(c2ccc(OCCCO)cc2)O[C@H]1c1ccccc1CN=[N+]=[N-]	0.313
COc1ccc([Si](C)(C)[C@H]2[C@H](CC(=O)N3CCC[C@H]3CO)O[C@@]3(C(=O)N(Cc4ccc(N5CCCCC5=O)cc4)c4ccccc43)[C@@H]2C)cc1	0.44
C=CC[C@@]12N=C(c3ccc(OCCCO)cc3)O[C@@H]1c1ccccc1N(CCC)C2=O	0.568
Cc1ccc(S[C@]2(C(=O)NCc3ccccc3)CC(=O)N(Cc3ccccc3C(F)(F)F)[C@@H]2c2ccc(CO)cc2)cc1	-0.012
O=C1[C@@H]2[C@@H](CC(COc3ccccc3)=C([C@H](O)CCc3ccccc3)[C@@H]2CO)C(=O)N1Cc1ccccc1	-0.0867
CC1CC/C=C\[C@H]2OC34C=CCN(Cc5ccccc5)C(=O)[C@H]3N(CCCCCCO)C(=O)[C@@H]4C2C(=O)O1 (some centres not stated)	0.0249
O=C1C2C=CC(C(O)c3c(F)cccc3Cl)N(Nc3ccc([N+](=O)[O-])cc3)C2C(=O)N1c1ccccc1 (configuration not stated)	0.218
CC(C)=CCCC(C)=CC(O)C1C=CC2C(=O)NC(=O)C2N1Nc1ccccn1 (configuration not stated)	-0.864

Task item: Which composite z-score is listed for `CCOC(=O)C[C@H]1[C@H](OC(=O)c2cc3ccccc3oc2=O)[C@@H](NC(=O)CC(C)C)c2cc(OCCCO)ccc2N1C(=O)Cc1ccc(OC)cc1` ?
Reply: -0.193

###

# Test system: Chordin-like protein 2 (CHRDL2)
# assayProcedure: compounds binding chordin-like 2 – biochemical, small-molecule microarray, 635 nm fluorescence, primary screen (AID 1126);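 also: printed compound slides probed with Chrdl2 protein at 4 µg/mL for 1 h at 4 C; score merges 667 nm emission intensity with signal to noise over three replicate slides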
# condition: fluorescence 635 nm, higher = more signal
Class (by composite z-score) -- bottom bin (below -0.3), middle bin (-0.3 to below 0.5), top bin (0.5 or more)

Some solved cases for reference:
compound	category
CCOC(=O)C1=CC[C@@H](c2ccccc2)N(S(=O)(=O)c2ccc(C)cc2)[C@H]1c1ccccc1I	middle bin
COCCOC(=O)N1C(=O)[C@@]2(c3cc(C#CCCO)ccc31)[C@H](c1ccc(OCCO)cc1)N1[C@H](c3ccccc3)[C@H](c3ccccc3)OC(=O)[C@H]1[C@@H]2C(=O)N1CCCCCCC1	top bin

Task item: Which class holds `COCCOC(=O)N1C(=O)[C@@]2(c3cc(C#CCC(C(=O)OC)C(=O)OC)ccc31)[C@H](C(N)=O)[C@H]1C(=O)O[C@H](c3ccccc3)[C@H](c3ccccc3)N1[C@@H]2c1ccc(O)cc1` ?
Reply: top bin

Task item: Which class holds `COc1ccc(C#Cc2ccc3c(c2)[C@]2(C(=O)N3)[C@H](C(=O)O)[C@H]3C(=O)O[C@H](c4ccccc4)[C@H](c4ccccc4)N3[C@@H]2c2ccccc2OCCO)cc1` ?
Reply: middle bin

Task item: Which class holds `Cc1ccc(S[C@]2(C(=O)NC(C)C)CC(=O)N(C3CCCCC3)[C@@H]2c2ccc(CO)cc2I)cc1` ?
Reply: bottom bin

Task item: Which class holds O=C1NC(=O)C2C1C=CC(C(O)c1ccc(B(O)O)cc1)N2Nc1ccc(Cl)cc1Cl (configuration not stated) ?
Reply: middle bin

Task item: Which class holds `COc1ccc([Si](C)(C)[C@H]2[C@H](CCO)O[C@@]3(C(=O)N(Cc4cccc(N(C=O)c5ccccc5)c4)c4ccccc43)[C@@H]2C)cc1` ?
Reply: middle bin
